test: Cytotoxicity against human CEM cells assessed as inhibition of cell proliferation; type: cell-based; conditions: CEM cells (CCRF-CEM)
OBSERVABLE: log10(CC50) (log10 of the value in µM)
Record value = log10 of CC50 given in µM.

O=C(NCCCCCCCCCCNC(=O)c1ccc(O)c(O)c1O)c1ccc(O)c(O)c1O; 2.00
O=C(NCCCCNC(=O)c1cc(O)c(O)c(O)c1)c1cc(O)c(O)c(O)c1; 1.36
O=C(NCCCOCCOCCOCCCNC(=O)c1ccc(O)c(O)c1O)c1ccc(O)c(O)c1O; 1.91

Please give log10(CC50), item by item, for the list that follows.
1. O=C(NCCCCCCNC(=O)c1ccc(O)c(O)c1O)c1ccc(O)c(O)c1O
2. CCCCCCCCOC(=O)c1cc(O)c(O)c(O)c1 [OCTYL_GALLATE]
3. O=C(NCCNC(=O)c1cccc(O)c1O)c1cccc(O)c1O
4. O=C(NCCCCNC(=O)c1ccc(O)c(O)c1O)c1ccc(O)c(O)c1O
5. O=C(OCCCCOC(=O)c1cc(O)c(O)c(O)c1)c1cc(O)c(O)c(O)c1
6. O=C(NCCN(CCNC(=O)c1cc(O)c(O)c(O)c1)C(=O)c1cc(O)c(O)c(O)c1)c1cc(O)c(O)c(O)c1

2.01
1.04
1.28
2.04
1.32
1.53

---

system: Human immunodeficiency virus 1; assay: Antiviral activity against HIV1 3B infected in human CEM cells assessed as reduction in virus-induced cytopathicity after 4 to 5 days by microscopy based syncytium cell formation assay; format: functional, organism-based, CCRF-CEM; conditions: Human immunodeficiency virus 1, 3B, CCRF-CEM; read-out: EC50
OBSERVABLE: EC50

O=C(NCCCCCCCCNC(=O)c1cc(O)c(O)c(O)c1)c1cc(O)c(O)c(O)c1; > 10 µM
CCCCOC(=O)c1cc(O)c(O)c(O)c1 [BUTYL GALLATE]; > 10 µM
O=C(NCCCCNC(=O)c1ccc(O)c(O)c1O)c1ccc(O)c(O)c1O; > 10 µM

With those in mind, consider the next compound.
Query for Human immunodeficiency virus 1: what EC50 does the record show for O=C(NCCCCNC(=O)c1cccc(O)c1O)c1cccc(O)c1O ? > 2 µM

---

experiment: Cytotoxicity against human Huh5-2 cells after 72 hrs by MTS assay; assay type: cell-based, Huh-5-2
OBSERVABLE: CC50 at 72 h

Solved cases (8 shown):
O=C(OCCCCOC(=O)c1cc(O)c(O)c(O)c1)c1cc(O)c(O)c(O)c1; > 50 µM
O=C(NCCCCN(CCCNC(=O)c1ccc(O)c(O)c1O)C(=O)c1ccc(O)c(O)c1O)c1ccc(O)c(O)c1O; > 50 µM
CCCCCOC(=O)c1cc(O)c(O)c(O)c1 [PENTYL GALLATE]; > 50 µM
O=C(NCCCCCCCCCCCCNC(=O)c1cc(O)c(O)c(O)c1)c1cc(O)c(O)c(O)c1; > 100 µM
O=C(NCCCCCCCCCCCCNC(=O)c1ccccc1O)c1ccccc1O; > 6.7 µM
O=C(NCCCCNC(=O)c1ccccc1O)c1ccccc1O; > 49 µM
CCCCOC(=O)c1cc(O)c(O)c(O)c1 [BUTYL GALLATE]; 29 µM
O=C(NCCCCCCCCCCNC(=O)c1cc(O)c(O)c(O)c1)c1cc(O)c(O)c(O)c1; 47 µM

Name the reported CC50 at 72 h value associated with the compound O=C(NCCN(CCN(CCN(CCNC(=O)c1cc(O)c(O)c(O)c1)C(=O)c1cc(O)c(O)c(O)c1)C(=O)c1cc(O)c(O)c(O)c1)C(=O)c1cc(O)c(O)c(O)c1)c1cc(O)c(O)c(O)c1 > 50 µM
